# measured-on: activated ERK2 (Homo sapiens, UniProt P28482)
# Sequence (P28482 whole entry): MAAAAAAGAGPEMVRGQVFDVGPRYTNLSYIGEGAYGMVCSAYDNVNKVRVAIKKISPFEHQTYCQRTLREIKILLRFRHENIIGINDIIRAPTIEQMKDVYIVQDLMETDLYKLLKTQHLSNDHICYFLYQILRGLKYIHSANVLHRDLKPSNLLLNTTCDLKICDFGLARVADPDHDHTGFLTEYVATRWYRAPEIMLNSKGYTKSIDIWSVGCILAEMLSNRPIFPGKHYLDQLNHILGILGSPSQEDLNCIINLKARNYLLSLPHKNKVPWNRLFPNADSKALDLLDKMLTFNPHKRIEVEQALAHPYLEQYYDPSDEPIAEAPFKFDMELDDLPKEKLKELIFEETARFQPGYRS
# protocol-details: ERK2 inhibition spectrophotometric coupled-enzyme assay
# Assay type: biochemical
# study-conditions: activated ERK2 10 nM, 65 μM ATP, 30° C., pH 7.5; read-out: ERK2 Inhibitory Activity (Ki class)
readout: Ki

See these solved cases before continuing.
{"columns": ["compound", "Ki"],
 "data": [
  ["CC(=O)NC(CO)C(=O)NCc1ccc(-c2c[nH]nc2-c2c[nH]c(C(=O)N[C@H](CO)c3ccc(F)c(Cl)c3)c2)cc1Cl (stereo in doubt) [II-20]", "< 1000 nM"],
  ["CC(C)(C)OC(=O)N[C@@H](CO)C(=O)NCc1ccc(-c2cn[nH]c2-c2c[nH]c(C(=O)NC(CO)c3ccc(F)c(Cl)c3)c2)cc1Cl (stereo partly drawn) [II-14]", "< 1000 nM"]
]}

Ask: What does the data say about its Ki? Entry: CCNC(=O)CN(CC(=O)NCC)Cc1ccc(-c2cn[nH]c2-c2c[nH]c(C(=O)N[C@H](CO)c3ccc(F)c(Cl)c3)c2)cc1Cl [II-85]
Result: < 1000 nM

====

# measured-on: activated ERK2 (Homo sapiens, UniProt P28482)
# protocol-details: ERK2 inhibition spectrophotometric coupled-enzyme assay
# Format: biochemical
pKi: −log10 of the molar value.
readout: pKi

{"columns": ["query-smiles", "measured-on", "readout", "measurement"],
 "data": [
  ["O=C(N[C@H](CO)c1ccc(F)c(Cl)c1)c1cc(-c2[nH]ncc2-c2ccc(CNCCCl)c(Cl)c2)c[nH]1", "activated ERK2 (Homo sapiens, UniProt P28482)", "pKi", "> 6.00"]
]}

Ask: Query pKi on activated ERK2 (Homo sapiens, UniProt P28482) for O=C(N[C@H](CO)c1ccc(F)c(Cl)c1)c1cc(-c2[nH]ncc2-c2ccc(CN(CCCl)CCCl)c(Cl)c2)c[nH]1
Result: > 6.00

====

# measured-on: activated ERK2 (Homo sapiens, UniProt P28482)
# protocol-details: ERK2 inhibition spectrophotometric coupled-enzyme assay
# Format: biochemical
# study-conditions: activated ERK2 10 nM, 65 μM ATP, 30° C., pH 7.5; read-out: ERK2 Inhibitory Activity (Ki class)
# Method: Compounds are assayed for the inhibition of ERK2 by a spectrophotometric coupled-enzyme assay (Fox et al (1998) Protein Sci 7, 2249). […] The rate of decrease of absorbance at 340 nm is monitored, which indicates the extent of uninhibited enzyme present in the assay. The IC50 is evaluated from the rate data as a function of inhibitor concentration. […]
pKi: −log10 of the molar value.
readout: pKi

See these solved cases before continuing.
{"columns": ["compound", "measurement"],
 "data": [
  ["N#CCNCc1ccc(-c2cn[nH]c2-c2c[nH]c(C(=O)N[C@H](CO)c3ccc(F)c(Cl)c3)c2)cc1Cl", "> 6.00"],
  ["CC(O)CNCc1ccc(-c2cn[nH]c2-c2c[nH]c(C(=O)N[C@H](CO)c3ccc(F)c(Cl)c3)c2)cc1Cl (stereo partly shown)", "> 6.00"],
  ["CCOC(=O)CN(C)Cc1ccc(-c2cn[nH]c2-c2c[nH]c(C(=O)N[C@H](CO)c3ccc(F)c(Cl)c3)c2)cc1Cl", "> 6.00"],
  ["CCN(CC)CC(=O)NCc1ccc(-c2cn[nH]c2-c2c[nH]c(C(=O)N[C@H](CO)c3ccc(F)c(Cl)c3)c2)cc1Cl", "> 6.00"],
  ["C[C@H](N)C(=O)NCc1ccc(-c2cn[nH]c2-c2c[nH]c(C(=O)N[C@H](CO)c3ccc(F)c(Cl)c3)c2)cc1Cl", "> 6.00"]
]}

Please supply pKi for each of the following items, keeping them in order.
1. CCOC(=O)NCc1ccc(-c2cn[nH]c2-c2c[nH]c(C(=O)N[C@H](CO)c3ccc(F)c(Cl)c3)c2)cc1Cl
2. CC(C)(C)OC(=O)N[C@H](CO)C(=O)NCc1ccc(-c2cn[nH]c2-c2c[nH]c(C(=O)NC(CO)c3ccc(F)c(Cl)c3)c2)cc1Cl (stereo partly shown)

Result:
["> 6.00", "> 6.00"]
